These entries and their values trace back to patent US20210024455A1.

Study Target: UniProt Q15554
Sequence (Q15554 1-542): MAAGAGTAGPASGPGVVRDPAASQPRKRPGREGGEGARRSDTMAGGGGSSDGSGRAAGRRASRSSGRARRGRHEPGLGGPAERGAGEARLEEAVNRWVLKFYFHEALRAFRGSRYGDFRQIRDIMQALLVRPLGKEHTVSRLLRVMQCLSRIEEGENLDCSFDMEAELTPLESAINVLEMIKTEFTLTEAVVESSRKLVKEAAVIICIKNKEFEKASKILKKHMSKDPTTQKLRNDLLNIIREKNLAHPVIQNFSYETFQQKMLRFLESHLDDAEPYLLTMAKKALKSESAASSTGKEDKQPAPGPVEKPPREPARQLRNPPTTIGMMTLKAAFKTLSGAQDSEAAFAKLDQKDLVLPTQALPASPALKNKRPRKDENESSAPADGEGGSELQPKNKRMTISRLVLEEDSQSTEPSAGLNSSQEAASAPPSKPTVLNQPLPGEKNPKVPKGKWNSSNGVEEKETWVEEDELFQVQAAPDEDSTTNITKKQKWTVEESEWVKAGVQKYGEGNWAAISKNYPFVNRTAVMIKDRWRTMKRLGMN
Protocol Details: biochemical
Type: binding
Condition Set: read-out: inhibition rate (%) in DSE FRET assay
Quick reference: inhibition at 50 µM of the listed items.

>  <Substance Smiles>
CC(=O)c1ccc(N(c2ccc(C(C)(C)C)cc2)c2ccccc2Oc2c([N+](=O)[O-])cc([N+](=O)[O-])cc2[N+](=O)[O-])cc1

>  <inhibition at 50 µM [%]>
18.4

$$$$
>  <Substance Smiles>
Cc1ccc(N(c2ccccc2)c2ccccc2Oc2c([N+](=O)[O-])cc([N+](=O)[O-])cc2[N+](=O)[O-])cc1

>  <inhibition at 50 µM [%]>
38.7

$$$$
>  <Substance Smiles>
O=[N+]([O-])c1cc([N+](=O)[O-])c(Oc2ccccc2N(c2ccccc2)c2ccccc2)c([N+](=O)[O-])c1

>  <inhibition at 50 µM [%]>
38.3

$$$$
>  <Substance Smiles>
CC(C)(C)c1ccc(Oc2c([N+](=O)[O-])cc([N+](=O)[O-])cc2[N+](=O)[O-])c(N(c2ccccc2)c2ccccc2)c1

>  <inhibition at 50 µM [%]>
33.6

$$$$
>  <Substance Smiles>
CC(=O)c1ccc(N(c2ccccc2)c2cc(C(C)(C)C)ccc2Oc2c([N+](=O)[O-])cc([N+](=O)[O-])cc2[N+](=O)[O-])cc1

>  <inhibition at 50 µM [%]>
23

$$$$
>  <Substance Smiles>
COc1ccc(N(c2ccccc2)c2cc(C(C)(C)C)ccc2Oc2c([N+](=O)[O-])cc([N+](=O)[O-])cc2[N+](=O)[O-])cc1

>  <inhibition at 50 µM [%]>
23.7

$$$$
>  <Substance Smiles>
CC(=O)c1ccc(N(c2ccc(C(C)=O)cc2)c2ccccc2Oc2c([N+](=O)[O-])cc([N+](=O)[O-])cc2[N+](=O)[O-])cc1

>  <inhibition at 50 µM [%]>
24.7

$$$$
>  <Substance Smiles>
CC(=O)c1ccc(N(c2ccccc2)c2ccccc2Oc2c([N+](=O)[O-])cc([N+](=O)[O-])cc2[N+](=O)[O-])cc1

>  <inhibition at 50 µM [%]>
25.5

$$$$
>  <Substance Smiles>
COc1ccc(N(c2ccccc2)c2ccccc2Oc2c([N+](=O)[O-])cc([N+](=O)[O-])cc2[N+](=O)[O-])cc1

>  <inhibition at 50 µM [%]>
20.4

$$$$
>  <Substance Smiles>
CC(=O)c1ccc(N(c2ccc(C)cc2)c2ccccc2Oc2c([N+](=O)[O-])cc([N+](=O)[O-])cc2[N+](=O)[O-])cc1

>  <inhibition at 50 µM [%]>
36.9

$$$$
>  <Substance Smiles>
Cc1cc([N+](=O)[O-])cc([N+](=O)[O-])c1Oc1ccccc1N(c1ccccc1)c1ccc(C(C)(C)C)cc1

>  <inhibition at 50 µM [%]>
11.8

$$$$
